# Test system: SNB-75
# test-name: NCI tumour cell line growth inhibition, 48 h
Activity calls are given as the source filed them. Rule as the data show it: active = GI50 up to about 1.1 µM and inactive = higher.
quantity-kind: GI50

// lookup GI50 | system=SNB-75 | key= "Cc1ccc2c(c1)-c1c(C#N)c(N)nc(-c3ccccc3)c1CCS2(=O)=O"
3.72 µM (inactive)

Try the compound CCOC(=O)N1CC2(C(=O)OC)C=CC1C(C(=O)OC)C2 (centres undefined)
> 100 µM (inactive)

Try the compound NC(CCCCCCCCCCP(=O)(O)O)C(=O)O (centres undefined)
7.73 µM (inactive)

Try the compound "N#CCCn1c(S)nnc1CCC(=O)Nc1ccc(Cl)cc1Cl"
> 100 µM (inactive)

Try the compound Cc1c(C#N)c(N)n(C2OC(CO)C(O)C(O)C2O)c(=S)c1C#N (centres undefined)
> 100 µM (inactive)

Try the compound CCOC(=O)/C(C#N)=C/c1ccc2c(c1)CC1(C2)Cc2cc(CC)c(C(C)O)cc2C1 (centres undefined)
8.38 µM (inactive)

Try the compound COC(=O)C1(CCC(C)=O)CCCCCC1=O (centres undefined)
> 100 µM (inactive)

Try the compound "CCOC(=O)CCc1c(C(=O)OCC)[nH]c(/C=C2\NC(=O)C(C)=C2CC)c1C"
13.5 µM (inactive)

Try the compound "CCOC(=O)c1ccc(NC(=O)Oc2ccc3c(C)cc(=O)oc3c2)cc1"
32 µM (inactive)

Try the compound "CN1CCN(c2cc(-c3cc4ccccc4o3)oc(=O)c2C#N)CC1"
80.4 µM (inactive)

Try the compound "COCc1cc2c(cc1/C=C/[N+](=O)[O-])OCO2"
17.9 µM (inactive)

Try the compound "COC(=O)/C=C\n1c(C)cc(=O)[nH]c1=O"
58.2 µM (inactive)

Try the compound "CCOC(=O)/C(C#N)=C/c1ccc(SCc2ccco2)c([N+](=O)[O-])c1"
> 100 µM (inactive)

Try the compound "CCN(CC)CCn1c2ccccc2c(=O)c2c(O)ccc(O)c21"
22.3 µM (inactive)

Try the compound "Cc1cc2c3ccccc3n(C)c2c2c1C(=O)C=CC2=O"
27 µM (inactive)

Try the compound Nc1ccc(C(=O)NN2C(=O)C(Cl)C2c2cc(Br)cc(Br)c2O)cc1 (centres undefined)
18 µM (inactive)

Try the compound "COc1cc(/C=C/C(=O)c2ccc(NS(=O)(=O)c3cc([N+](=O)[O-])ccc3C)cc2)cc(OC)c1OC"
4.39 µM (inactive)

Try the compound "O=C(N/N=C/c1ccccc1O)c1ccccc1Nc1ccccc1C(=O)N/N=C/c1ccccc1O"
3.09 µM (inactive)

Try the compound O=C(NCc1cccnc1)C1COc2cc(-c3cc(=O)c4ccccc4o3)ccc2O1 (centres undefined)
3.49 µM (inactive)

Try the compound C=CCC(O[Si](C)(C)C(C)(C)C)c1cc(O[Si](C)(C)C(C)(C)C)ccc1OC (centres undefined)
> 55.6 µM (inactive)

Try the compound "CN1C2CCC1CC(=CCOC(c1ccc(F)cc1)c1ccc(F)cc1)C2"
13.8 µM (inactive)

Try the compound "c1ccc2c3nnc(c2c1)SCCSCCCSCCS3"
3.52 µM (inactive)

Try the compound CC1OC(OC2C(O[C@H]3CC[C@@]4(C)C(=CC[C@H]5[C@@H]6C[C@@H]7O[C@]8(CC[C@@H](C)CO8)[C@@H](C)[C@@H]7[C@@]6(C)CC[C@@H]54)C3)OC(CO)C(O)C2O)C(O)C(O)C1O (some centres undefined)
1.24 µM (inactive)

Try the compound "NC1=C(NC(=O)Cc2ccccc2F)C(=O)c2ccccc2C1=O"
18.8 µM (inactive)

---

# Test system: HOP-62
# test-name: NCI tumour cell line growth inhibition, 48 h
Activity calls are given as the source filed them. Rule as the data show it: active = GI50 up to about 1.1 µM and inactive = higher.
// one of active, inactive, no free text

Call for entry [O-][S+]1CSCS1 (centres undefined) :
inactive

Try the compound CC(=O)OC(C)(C)/C=C/C(=O)[C@](C)(O)[C@H]1[C@H](O)C[C@@]2(C)[C@@H]3CC=C4[C@@H](C[C@H](O)C(=O)C4(C)C)[C@]3(CO)C(=O)C[C@]12C [CUCURBITACIN A]
active

Try the compound "COI1NC(=O)c2ccccc21"
inactive

Try the compound CC(C)(C)C1CC[C@H]2c3c([nH]c4ccccc34)[C@H]3C(=O)N(c4ccc(F)cc4)C(=O)[C@H]3[C@H]2C1 (some centres undefined)
inactive

---

# System: NCI/ADR-RES
# test-name: NCI tumour cell line growth inhibition, 48 h
The source made the active and inactive calls. Cut-off read from the data, not from the text of the source: active = GI50 up to about 1.1 µM and inactive = higher.
quantity-kind: GI50

Which GI50 value is on record for "CC(C)(C)OC(=O)N(CCCCN(CCCNC(=O)C(F)(F)F)C(=O)OC(C)(C)C)CCCNC(=O)C(F)(F)F" ?
91.2 µM (inactive)

Try the compound "COc1cccc2c1CCc1sc(CN3CCN(C)CC3)nc1-2"
> 100 µM (inactive)

Try the compound Cc1ccc(S(=O)(=O)N/N=C2\CCC3(O)CC2(C)CCC2C3CC2(C)C)cc1 (configuration not stated)
33.7 µM (inactive)

Try the compound "CN(C)C(=N)/N=C(\N)Nc1cccc(Cl)c1"
> 100 µM (inactive)

Try the compound "Nc1ccc2nc(-c3cccc(C(F)(F)F)c3)cc(O)c2c1"
92.9 µM (inactive)

Try the compound "CCN(CC)CCN(/C(=N/c1ccccc1)N1CCOCC1)c1ccccc1"
> 100 µM (inactive)

Try the compound "CC1=C(C)[C@@]2(C)O[C@@]2(C)O[C@@]2(C)O[C@@]12C"
> 100 µM (inactive)

---

# Test system: UACC-62
# test-name: NCI tumour cell line growth inhibition, 48 h
Activity calls are given as the source filed them. No stated cut-off is given here; in the data, active = GI50 up to about 1.1 µM and inactive = higher.
// one of Yes for active, No for inactive, no free text

Call for entry CC12N=NN(c3ccc([N+](=O)[O-])cc3)C1(O)c1ccccc1C2=O (stereo not drawn) :
No

Try the compound COc1cc2c(c(OC)c1O)-c1ccc(SC)c(=O)cc1C(NC(C)=O)CC2 (stereo not drawn)
Yes

Try the compound "Sc1nnc(NNc2ccccc2)n1Nc1ccccc1"
Yes

Try the compound CCCCCCCCCCCCCCCCCCNC(=O)C(N)Cc1ccc(OCc2ccccc2)cn1 (stereo not drawn)
No

Try the compound C[Si](C)(C)OC1c2[nH]c3ccccc3c2CN2C(=O)CCC12 (stereo not drawn)
No

Try the compound OC(Cc1cccc2ccccc12)CN1CCC(c2ccccc2)CC1 (stereo not drawn)
No

Try the compound NC(CC1=CCC=CC1)C(=O)O (stereo not drawn)
No

Try the compound "CSCCCNC(=O)c1csc(-c2csc(CCNC(=O)CNC(=O)OC(C)(C)C)n2)n1"
No

---

# Test system: Hs-578T
# test-name: NCI tumour cell line growth inhibition, 48 h
Active and inactive are the calls of the source. Cut-off read from the data, not from the text of the source: active = GI50 up to about 1.1 µM and inactive = higher.
Field: GI50. Provide a value for each of the compounds that follow.

Which GI50 value is on record for COC(=O)c1cc(NC2OCC(OC(C)=O)C(OC(C)=O)C2OC(C)=O)nc(SC)c1C(=O)OC (stereo unspecified) ?
> 100 µM (inactive)

Try the compound O=C(Nc1cccc(C(F)(F)F)c1)C(=O)C(C(=O)c1ccc2ccccc2c1)C1OC(=O)c2ccccc21 (stereo unspecified)
7.14 µM (inactive)

Try the compound "CC[N+](C)(CC)Cc1ccccc1[N+](=O)[O-]"
> 100 µM (inactive)

Try the compound COc1cc(C2c3cc4c(cc3[C@H](OCCN(C)C)[C@@H]3COC(=O)C23)OCO4)cc(OC)c1O (stereo partly specified)
1.52 µM (inactive)

Try the compound "CCN(CC)CCn1c2ccccc2c(=O)c2c(O)ccc(O)c21"
22.1 µM (inactive)

Try the compound COc1ccc(Cc2c(-c3ccc(C)cc3)n[nH]c(=O)c2C2C(=O)N(c3ccccc3)N=C2c2ccccc2)cc1 (stereo unspecified)
31.6 µM (inactive)

---

# Tested on: A498
# test-name: NCI tumour cell line growth inhibition, 48 h
Activity calls are given as the source filed them. Cut-off read from the data, not from the text of the source: active = GI50 up to about 1.1 µM and inactive = higher.
quantity-kind: GI50

Which GI50 value is on record for "Cc1ccc(/N=C2N=C(Cl)/C(=C\c3ccccc3)N\2)cc1" ?
> 100 µM (inactive)

Try the compound FC(F)(F)c1ccc(C2ON=C(c3ccccc3)N2C23CC4CC(CC(C4)C2)C3)cc1 (centres undefined)
> 10 µM (inactive)

Try the compound Cc1ccc2nc3ccccc3c(C3C4C(=O)N(c5ccc(Br)cc5Cl)C(=O)C4ON3C(C(N)=O)c3ccccc3)c2c1 (centres undefined)
> 25 µM (inactive)

Try the compound "Cc1[nH]n(-c2ncc(C#N)c(=O)[nH]2)c(=O)c1CCO"
> 100 µM (inactive)

---

# Tested on: MDA-MB-231
# test-name: NCI tumour cell line growth inhibition, 48 h
The source made the active and inactive calls. No stated cut-off is given here; in the data, active = GI50 up to about 1.1 µM and inactive = higher.
Field: GI50. Provide a value for each of the compounds that follow.

Which GI50 value is on record for "CC(C)[Si](OC1=C(C(=O)N(C)c2ccccc2Cl)CCCCC1)(C(C)C)C(C)C" ?
> 100 µM (inactive)

Try the compound "CCOC(=O)[C@@H]1CCN2CN(c3ccc(OC)cc3)N=C(c3ccccc3)[C@@]12c1ccccc1"
31.6 µM (inactive)

Try the compound "CCc1nc(N)nc(N)c1-c1ccc([N+](=O)[O-])c(NCc2ccccc2)c1"
14.8 µM (inactive)

Try the compound "CC(C)c1c(P(=O)(c2ccccc2)c2ccccc2)n(C)c2ccccc12"
> 100 µM (inactive)

Try the compound COc1cccc(N(CN2C(=O)CCC2C(=O)O)C(C)=O)c1 (centres undefined)
> 100 µM (inactive)

Try the compound "C[C@@H]1CC[C@@H](C)[C@](C)(CCc2ccoc2)C/C=C\C=C/1C(=O)O"
> 50 µM (inactive)

Try the compound OC(Cc1cccc2ccccc12)CN1CCC(c2ccccc2)CC1 (centres undefined)
14.2 µM (inactive)

Try the compound "O=c1oc2ccc(Cl)cc2cc1-c1cn2ccsc2n1"
24.6 µM (inactive)

Try the compound "COc1cc2c(cc1OC)[C@H]1C(=O)c3cc4c(cc3[C@H]1N(C)C2=O)OCO4"
28 µM (inactive)

Try the compound NC(CC1=CCC=CC1)C(=O)O (centres undefined)
> 100 µM (inactive)

Try the compound "OCCN(C1=NCCN1)/[N+](=C/c1ccccc1O)[CH-]c1ccccc1O"
> 100 µM (inactive)

Try the compound "CC1=C(C)[C@@]2(C)O[C@@]2(C)O[C@@]2(C)O[C@@]12C"
> 100 µM (inactive)

Try the compound "Cc1c(CCCl)c(Cl)n2c(nc3ccccc32)c1C#N"
1.32 µM (inactive)

Try the compound "CCc1ccccc1NC(=O)C(=O)CC(=O)c1sc(Nc2ccccc2Cl)nc1C"
27 µM (inactive)
